MEASUREMENT TARGET: hemagglutinin (HA) on live influenza A virus A/Solomon Islands/3/06 H1N1 (Influenza A virus A/Solomon …)
PROCEDURE DETAILS: cell-based or functional assay
Doc: threshold 70% (exclusive). Items with % Neutralization beneath it return Condition met; others return Condition not met.

// query Find out if reported % Neutralization for TCN-553 (5261_C18) (antibody, V domains shown) VH: QVQVVQSGTEVKKPGSSVKVSCQTSGGRFMSYAITWVRQAPGQGLEWMGGIVPVFGTANYAQKFQGRVTITTDDSTRTAYMELSSLRSEDTAVYYCGFRYGSGYGFDSWGQGTLVTVSS VL: EIVLTQSPGTLSLSPGERATLSCRASQSVSSSYLAWYQKKPGQAPRLLIYGASTRATGIPDRFTGSGSGTDFTLSISRLEPEDFAVYYCQHFGTSVFTFGGGTKVEIK is less than 70%
// result Condition met

// query Is the reported % Neutralization for TCN-536 (5095_N01) (antibody, V domains shown) VH: QVQLQQWGAGLLKPSETLSLTCAVYGGSFSVSGYYWSWIRQPPGRGLEWIGEISHGGSTNYNPSLKSRVTISVDTTKNQFSLRLSSVTAADTAVYYCARGTDPDTEVYCRVGNCAAFDYWGQGSLVTVSS VL: EIILAQSPGTLSLSPGERATLSCRASQFVSTRSLAWYQQRPGQAPRLLIYGASSRATGIPDRFSGSGSGTDFTLTISRLEPEDFAVYYCQHYGYSPRYAFGQGSKVEIK strictly below 70%?
// result Condition not met

// query hey, is % Neutralization for TCN-534 (5249_B02) (antibody, V domains shown) VH: QVQLVQSGAEVKKPGSSVKVSCRESGGTFNGYTITWVRQAPGQGLEWMGGIIPMMGTVNYAQKLQGRVTITTDYFTKTAYMDLNNLRSEDTAMYYCVKIRYTGQQLLWGQGTLVTVSS VL: DIQMTQSPSTLSASIGDRVTITCRASQSIASWLAWYQQKPGKAPKLLIYEAVNLESGVPSRFSGSGSGTDFTLTISSLQPDDFATYFCQHYGTISQTFGGGTKVEIK lower than 70% or not?
// result Condition met

// query Is % Neutralization of TCN-538 (3206_O17) (antibody, V domains shown) VH: QITLKESGPTLVKPTQTLTLTCVFSGFSLSITGVRVGWIRQPPGKALEWLALISWDDEKHYSPSLQSRLTITKDTSKNQVVLTMTNLDPVDTATYYCARSTDRGHVLRYFGWMLPGDAFDVWGQGTMVTVSS VL: DIVMTQSPDFLPVSLGERATINCKSSQRVLYSSNNKNYLAWYQLKPGQPPKLIIYWASTRESGVPDRFSGSGSGTEFTLTISSLQAEDVAVYYCQQYYSRPYTFGQGTKLEIK strictly below 70%?
// result Condition met
